The reported measurements were obtained from the supplement of paper PMC6763611.

Would you mind telling me the reported growth inhibition of each entry?
test system: Plasmodium falciparum NF54; assay: growth inhibition relative to untreated control; higher = more inhibition; settings: 5 µM; MM + chorismate end-products (CM screening medium); 72 h
One number for each entry, in %.

Solved cases below.
>  <compound>
COc1ccc(CN2CCOc3ccc(C(C)(O)CN(C)C)cc3C2)cc1C (stereo not given)

>  <unit.abbrev>
%

>  <test.result>
66.7

$$$$
>  <compound>
CN1CCN(S(=O)(=O)c2ccc(-c3ccc4c(Nc5ncc(Cl)cn5)ccnc4c3)cc2)CC1

>  <unit.abbrev>
%

>  <test.result>
99

$$$$
>  <compound>
CCOc1ccccc1C(=O)Nc1cccc(-c2nc3ncccn3c2C)c1

>  <unit.abbrev>
%

>  <test.result>
95.8

$$$$

Now consider the entry below.
The reported value for `c1ccc(Oc2ccc(-c3cncc(-c4ccc5[nH]ccc5c4)n3)cc2)cc1` in terms of growth inhibition is 86.5

----------
test system: Plasmodium falciparum NF54; test: growth inhibition relative to untreated control; higher = more inhibition; settings: 1 µM; minimal medium (MM); 72 h
# binarize growth inhibition: threshold 20% inclusive, high side Y, low side N

>  <compound>
Nc1ccc2ncnc(Nc3ccc(OCc4cccc(F)c4)c(Cl)c3)c2c1

>  <qualitative.label>
Y

$$$$
>  <compound>
O=C(NC1CC1)c1ccc(N2CCC(Cc3ccccc3)CC2)nc1

>  <qualitative.label>
Y

$$$$
>  <compound>
CC(C)(C)OC(=O)N1CCN(c2cc(-c3ccc(Oc4ccccc4)cc3)n[nH]2)CC1

>  <qualitative.label>
N

$$$$

Task: Item `CC(C)/N=c1\cc2n(-c3ccc(Cl)cc3)c3ccccc3nc-2cc1Nc1ccc(Cl)cc1` with growth inhibition of 20% or above?
Result: Y

Task: # bool: growth inhibition of Cc1cc2ccccc2n1CC(=O)N1CC(C(=O)N2CCCCC2)Oc2ccccc21 (stereo not given) >= 20%
Result: Y

----------
tested on: Plasmodium falciparum NF54; assay: growth inhibition relative to untreated control; higher = more inhibition; details: 5 µM; MM + chorismate end-products (CM screening medium); 72 h
Answer no if growth inhibition is under 70%, and yes if it is 70% or more.

Completed entries (count: 5):
>  <compound>
c1ccc(-c2cc(N3CCCCC3)c3ccccc3n2)nc1

>  <qualitative.label>
no

$$$$
>  <compound>
O=C(CN1CCOCC1)Nc1ccc2ncnc(Nc3ccc(OCc4cccc(F)c4)c(Cl)c3)c2c1

>  <qualitative.label>
yes

$$$$
>  <compound>
O=C(Nc1nnc(S)s1)c1cc(Br)ccc1Cl

>  <qualitative.label>
no

$$$$
>  <compound>
CN1CCCN(C(c2ccccc2)c2ccc(Cl)cc2)CC1 (stereo unspecified)

>  <qualitative.label>
no

$$$$
>  <compound>
CNC(=O)c1nn(C)c2c1C(C)(C)Cc1cnc(Nc3ccc(N4CCN(C)CC4)cc3)nc1-2

>  <qualitative.label>
yes

$$$$

Task: Check this compound for growth inhibition at or above 70%: `O=C(NCc1ccoc1)N1CCN(Cc2ccc3c(c2)OCO3)CC1`
Result: no

Task: Decide: is the reported value of growth inhibition for `CC(=O)N1CCc2cc3nc(C)cc(C)c3cc21` equal to or greater than 70%?
Result: no

----------
test system: Plasmodium falciparum NF54; assay: growth inhibition relative to untreated control; higher = more inhibition; conditions: 1 µM; MM + chorismate end-products (CM screening medium); 72 h
Record 1 (yes) whenever growth inhibition is at 40% or higher; record 0 (no) when lower.

Task: Tell me whether growth inhibition is at least 40% here: `Cn1ccnc1CNCCS(=O)(=O)c1cccc(Nc2ccc(-c3cccc(F)c3)cn2)c1`
Result: 0 (no)

----------
test system: Plasmodium falciparum NF54; test: growth inhibition relative to untreated control; higher = more inhibition; conditions: 5 µM; minimal medium (MM); 72 h
growth inhibition vs 50%: at or above is yes, below is no.

>  <molecule>
COc1ccc(-c2cncc3ccc(C(=O)NCCCn4ccnc4)nc23)cc1

>  <experimental.system>
Plasmodium falciparum NF54

>  <qualitative.label>
yes

$$$$

Task: Please tell me: is the molecule `N=C(N)c1ccc(OCCCCCOc2ccc(C(=N)N)cc2)cc1` at or over 50% in terms of growth inhibition?
Result: yes

Task: Please tell me: is the molecule `Oc1c(I)cc(I)c2cccnc12` at or over 50% in terms of growth inhibition?
Result: no

Task: Could you verify whether the entry `CO[C@@H](C(=O)N1Cc2[nH]nc(NC(=O)c3ccc(N4CCN(C)CC4)cc3)c2C1)c1ccccc1` shows growth inhibition of no less than 50%?
Result: yes

Task: Could you please find out whether `CNc1nnc(Sc2cnn(-c3ccccc3)c(=O)c2Cl)s1` has growth inhibition that meets 50% or exceeds it?
Result: yes

Task: Reported growth inhibition reaches at least 50% for `CS(=O)(=O)Cc1nc2ccccc2oc1=O` ?
Result: no

Task: Entry `CC(C)(C)OC(=O)N1CCC(Cn2nc(-c3cnc4ccccc4c3)c3c(N)ncnc32)CC1` : is its growth inhibition no less than 50%?
Result: yes

Task: Decide: is the reported value of growth inhibition for `CN1CCN(c2cc(-c3ccc(F)cc3)nc(-c3ccncc3)n2)CC1` equal to or greater than 50%?
Result: yes

Task: Form field: growth inhibition at least 50%? Entry: CC(C(=O)Nc1ccc2oc(-c3ccncc3)nc2c1)c1ccccc1 (configuration not stated)
Result: no

Task: Test whether the molecule CCc1ccccc1-n1c(C)cn2c3c(=O)n(C(C(=O)OC)C(C)C)c(=O)n(C)c3nc12 (configuration not stated) records growth inhibition of 50% or higher.
Result: yes

Task: hey, is growth inhibition for this one >= 50%? `N#Cc1ccc(-c2cnc(N)c(-c3ccc(C(N)=O)cc3)n2)cc1`
Result: yes

Task: Item Cc1[nH]c2ccccc2c1C(c1cccs1)N1CCN(C)CC1 (configuration not stated) with growth inhibition of 50% or above?
Result: no

Task: Given the entry `COc1ccc(C(=N)N)cc1-c1cn(-c2ccc(C(=N)N)cc2)nn1` , answer whether its growth inhibition meets or surpasses 50%.
Result: no

Task: Please indicate if the recorded growth inhibition for `CC(C)(C)c1cnc(NC(=O)c2ccccc2O)s1` meets or exceeds 50%.
Result: no

Task: For this molecule, is measured growth inhibition 50% or higher? `Cc1cc(C(=O)Nc2ccc(-c3ccccc3)cc2)no1`
Result: yes

Task: Is reported growth inhibition greater than or equal to 50% here: O=C(C(Cc1c[nH]c2ccccc12)NS(=O)(=O)c1ccc(Cl)cc1)N1CCCCC1 (configuration not stated)
Result: yes

Task: Is reported growth inhibition greater than or equal to 50% here: `Brc1cncc(-c2cc(NCCCn3ccnc3)nc(-c3ccccc3)n2)c1`
Result: yes

Task: Please tell me: is the molecule `Cc1ccc(Oc2ccc(NC(=O)CNc3ccccc3N3CCCC3=O)cc2)cc1` at or over 50% in terms of growth inhibition?
Result: yes

----------
test system: Plasmodium falciparum NF54; experiment: growth inhibition relative to untreated control; higher = more inhibition; conditions: 1 µM; minimal medium (MM); 72 h
The label depends only on growth inhibition: condition met if it is at least 30%, condition not met if it is smaller.

See these solved cases before continuing.
>  <compound>
Cc1cc(C)nc(-n2nc(C)cc2Nc2ccccc2)n1

>  <qualitative.label>
condition not met

$$$$
>  <compound>
COc1ccc(N(CCc2cccc(C)n2)C(C)=O)cc1

>  <qualitative.label>
condition not met

$$$$
>  <compound>
Cc1ccc2nc(C)c(-c3ccn(Cc4ccccc4)n3)n2c1

>  <qualitative.label>
condition met

$$$$
>  <compound>
COC(=O)c1ccc(F)cc1NS(=O)(=O)c1cccc(-c2cnn(Cc3ccccc3)c2)c1

>  <qualitative.label>
condition met

$$$$
>  <compound>
CCOc1ccccc1C(=O)Nc1cccc(-c2nc3ncccn3c2C)c1

>  <qualitative.label>
condition met

$$$$
>  <compound>
Cc1ccc(NC(=O)c2nc[nH]c2C(=O)Nc2nc3ccccc3[nH]2)c(C)c1

>  <qualitative.label>
condition met

$$$$
>  <compound>
CC(=O)OCC1OC([S-])C(OC(C)=O)C(OC(C)=O)C1OC(C)=O.CCP(CC)CC.[Au+] (stereo not given)

>  <qualitative.label>
condition met

$$$$
>  <compound>
CN1CCC(c2cc(-c3ccncc3)c(-c3ccc(F)cc3)[nH]2)CC1

>  <qualitative.label>
condition met

$$$$

Task: Confirm if growth inhibition reported for the compound `c1ccc(Oc2ccc(-c3cc(C4CCOCC4)[nH]n3)cc2)cc1` is 30% or above.
Result: condition not met

Task: // inclusive: growth inhibition at least 30%? input: CC1CS(=O)(=O)CCN1/N=C/c1ccc([N+](=O)[O-])o1 (stereo not given)
Result: condition not met

----------
test system: Plasmodium falciparum NF54; assay: growth inhibition relative to untreated control; higher = more inhibition; conditions: 5 µM; MM + chorismate end-products (CM screening medium); 72 h
Provide the reported growth inhibition of each item.
Give bare numbers, in %.

Reference set, count: 5
>  <compound>
COc1cccc(-n2nnnc2S(=O)(=O)Cc2ccccc2)c1

>  <growth inhibition / %>
65.6

$$$$
>  <compound>
COc1ccccc1C(C)NCC(=O)Nc1cc(C(F)(F)F)ccc1Cl (stereo unspecified)

>  <growth inhibition / %>
88.6

$$$$
>  <compound>
CC(=O)NCC1CN(c2ccc(-c3ccc(CO)cc3)c(F)c2)C(=O)O1 (stereo unspecified)

>  <growth inhibition / %>
31.4

$$$$
>  <compound>
CCc1cc(=O)n(C)c(SC(C)C(=O)Nc2ccc(F)cc2)n1 (stereo unspecified)

>  <growth inhibition / %>
96.9

$$$$
>  <compound>
CCn1cnc2c(Nc3cc(F)cc(F)c3)nc(C#N)nc21

>  <growth inhibition / %>
40.3

$$$$

Observed growth inhibition on Plasmodium falciparum NF54, entry `CCN(CC)CCCN1CCN(C(=O)c2cccc(-c3noc(C(F)(F)F)n3)c2)CC1` , equals 95.3
